target.desc: UniProtKB P21980
Sequence (P21980 whole entry): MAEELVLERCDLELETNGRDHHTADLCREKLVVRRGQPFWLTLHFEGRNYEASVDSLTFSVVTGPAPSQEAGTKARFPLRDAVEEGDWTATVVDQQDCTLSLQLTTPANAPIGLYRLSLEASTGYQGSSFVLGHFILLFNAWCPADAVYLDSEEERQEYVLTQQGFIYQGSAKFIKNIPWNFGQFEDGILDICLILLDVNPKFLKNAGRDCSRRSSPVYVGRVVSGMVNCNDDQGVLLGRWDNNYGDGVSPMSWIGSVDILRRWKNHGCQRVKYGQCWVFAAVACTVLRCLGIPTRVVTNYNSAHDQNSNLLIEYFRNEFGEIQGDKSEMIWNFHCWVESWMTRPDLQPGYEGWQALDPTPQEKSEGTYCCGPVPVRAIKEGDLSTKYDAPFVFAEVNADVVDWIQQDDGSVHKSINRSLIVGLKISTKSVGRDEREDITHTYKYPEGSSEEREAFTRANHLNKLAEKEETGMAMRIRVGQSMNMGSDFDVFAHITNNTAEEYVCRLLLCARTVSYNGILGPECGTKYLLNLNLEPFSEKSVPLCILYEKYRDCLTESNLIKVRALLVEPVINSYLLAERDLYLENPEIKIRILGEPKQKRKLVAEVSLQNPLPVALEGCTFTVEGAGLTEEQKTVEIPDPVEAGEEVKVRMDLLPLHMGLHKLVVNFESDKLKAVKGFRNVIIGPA
assay.overview: BP Incorporation Assay
experimental.conditions: 37 °C
attribute.measured: pIC50
Just the number, please; pIC50 means minus log10 of the concentration in mol/L.

Name the recorded pIC50 for CC1=CC(=O)c2ccccc2C1=O [Vitamin K3] .
5.66

Recorded values, source BindingDB's records for doi:10.1016/j.chembiol.2008.07.015.
